- test-description: JC-1 mitochondrial signal, unstimulated HepG2 cells – cell-based, JC-1 fluorescence, 24 h, 100 nL compound, profiling panel (AID 1167); further: test concentration not given here
- run-parameters: HepG2 mitochondrial potential, higher = more signal
Returns one of Yes or No; Yes when z-score is >= -0.02.

* CC(C)NC(=O)[C@@]1(c2ccc([N+](=O)[O-])cc2)CC(=O)N(CC23CC4CC(CC(C4)C2)C3)[C@@H]1c1ccc(CO)cc1 | No
* C[N+](C)(C)CCCCNC(=O)[C@H]1C[C@H]2C(=O)N[C@@H](Cc3ccccc3)C(=O)N2[C@H]1c1cccc(OCCO)c1 | No
* C=CC[C@@]1(C(=O)OC)N=C(c2ccc(OCCCO)cc2)O[C@@H]1c1ccccc1N=[N+]=[N-] | Yes
* CC(C)C(=C=CC[C@H](O)c1ccccc1OCCO)C[C@H](O)COCc1ccccc1 | No
* C=C(CCCC)/C(=C/C[C@H](OC(=O)c1ccncc1)c1ccc(OCCO)cc1)c1cnc2ccccc2c1 | Yes
* C=CC[C@@]12N=C(c3ccc(OCCCO)cc3)O[C@@H]1c1ccccc1N(CCC)C2=O | Yes
* O=C1NC(=O)C2C1C=CC(C(O)c1ccc([N+](=O)[O-])cc1)N2Nc1ccccn1 (stereo unspecified) | No
* C=C(C)[C@@H]1CC=C(C(O)C2C=CC3C(=O)N(C)C(=O)C3N2Nc2ccc([N+](=O)[O-])cc2[N+](=O)[O-])CC1 (stereo partly specified) | No
* CC1CC/C=C\[C@H]2OC34C=CCN(c5ccc6ccccc6c5)C(=O)[C@H]3N(C(C)CO)C(=O)[C@@H]4C2C(=O)O1 (stereo partly specified) | Yes
* COC(=O)C(CC#Cc1ccc2c(c1)[C@]1(C(=O)N2)[C@H](C(=O)N2CCc3cc(OC)c(OC)cc3C2)[C@H]2C(=O)O[C@H](c3ccccc3)[C@H](c3ccccc3)N2[C@@H]1c1ccccc1OCCO)C(=O)OC | No
* CCCCN1CC=CC23O[C@@H]4/C=C\CCCOC(=O)C4[C@H]2C(=O)N(C(CO)C(C)C)[C@@H]3C1=O (stereo partly specified) | No
* O=C1O[C@@H](c2ccccc2)[C@@H](c2ccccc2)N2[C@@H](c3ccc(OCCO)cc3)[C@]3(C(=O)Nc4ccc(C#CCCO)cc43)[C@@H](C(=O)O)[C@H]12 | No
* CC(C)C[C@H]1NC(=O)C([C@@H](C)OCc2ccccc2)NC(=O)[C@@]23C(=O)N[C@@H](Cc4ccccc4)C2[C@H](C)[C@@]2(C)O[C@H]2C3/C=C/C/C=C\CNC1=O (stereo partly specified) | Yes
* COc1ccc([Si](C)(C)[C@H]2[C@H](CC(=O)N3Cc4ccccc4C[C@H]3CO)O[C@@]3(C(=O)N(C)c4c(Br)cc(C)cc43)[C@@H]2C)cc1 | No
* C=C(COC)C(=O)CC[C@@H](OC(=O)c1ccccc1-c1ccccc1C(=O)O)c1ccc(OCCO)cc1 | No
* CO[C@H]1O[C@H](CO)[C@@H](OC(=O)Nc2ccccc2-c2ccccc2)[C@H](OC(=O)Nc2ccccc2)[C@H]1OC(=O)Nc1ccccc1 | No
* C=CCNC(=O)[C@H]1[C@@H]2C(=O)O[C@@H](c3ccccc3)[C@@H](c3ccccc3)N2[C@@H](c2ccc(OCCO)cc2)[C@]12C(=O)Nc1ccccc12 | No
* Cc1ccc(N2C(=O)c3ccccc3[C@](C)(C(=O)NCCCN(C)C)[C@@H]2c2ccc(CO)cc2)nc1 | No
* CCOC(=O)C[C@H]1[C@H](OC(=O)c2cc3ccccc3oc2=O)[C@@H](NC(=O)CC(C)C)c2cc(OCCCO)ccc2N1C(=O)Cc1ccc(OC)cc1 | Yes
* O=C(NCCN1CCOCC1)[C@@H]1c2ccccc2C(=O)N(Cc2ccc(OC(F)(F)F)cc2)[C@H]1c1ccc(CO)cc1 | Yes
* O=C1N(CCS(=O)(=O)c2ccccc2)c2ccccc2C[C@]12N=C(c1ccc(OCCCO)cc1)O[C@@H]2c1ccccc1 | No

---

- test-description: viability profiling in RPMI8226 myeloma cells – cell-based, resazurin fluorescence, basal, 24 h, PK04 Diversity Set, profiling panel (AID 1180);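 further: RPMI8826 multiple myeloma cell line at 5000 cells per well; test concentration not given here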
- run-parameters: higher = more signal
Each record's z-score is compared with lo = under -0.6, mid = from -0.6 up to 0.1, hi = 0.1 and over to give its class.

* COc1ccc([Si](C)(C)[C@H]2[C@H](CCO)O[C@@]3(C(=O)N(Cc4cccc(N(C=O)c5ccccc5)c4)c4ccccc43)[C@@H]2C)cc1 | lo
* COCCOC(=O)N1C(=O)[C@@]2(c3cc(C#CCCO)ccc31)[C@H](C(N)=O)[C@H]1C(=O)O[C@H](c3ccccc3)[C@H](c3ccccc3)N1[C@@H]2c1ccccc1OCCO | lo
* C=C(CCCC)/C(=C/C[C@H](OC(=O)c1ccncc1)c1ccc(OCCO)cc1)c1cnc2ccccc2c1 | hi
* O=C1O[C@@H](c2ccccc2)[C@@H](c2ccccc2)N2[C@@H](c3ccccc3OCCO)[C@]3(C(=O)Nc4ccc(C#CCCO)cc43)[C@@H](C(=O)NC[C@H](O)c3ccccc3)[C@H]12 | lo
* COc1cc(CO)cc(I)c1O[C@H]1C=C(C(=O)NCCO)C[C@@H](NC2CCCCCC2)[C@@H]1O | hi
* CC(C)OC(=O)CC(=O)CC(O)c1cccc([N+](=O)[O-])c1 (stereo not drawn) | mid
* CCOC(=O)C[C@H]1[C@H](OC(=O)c2ccccc2-c2ccccc2)[C@@H](NC(=O)c2ccc3ccccc3c2)c2cc(OCCCO)ccc2N1C(=O)Cc1ccc(OC)cc1 | mid
* O=C1C2C=CC(C(O)c3cccs3)N(Nc3ccc([N+](=O)[O-])cc3)C2C(=O)N1c1ccccc1 (stereo not drawn) | mid
* CC1=C([C@H](O)CCc2ccccc2)[C@H](CO)n2c(=O)n(-c3ccccc3)c(=O)n2C1 | hi
* C=CCOC(=O)[C@H]1[C@@H]2C(=O)O[C@@H](c3ccccc3)[C@@H](c3ccccc3)N2[C@@H](c2ccc(OCCOC(=O)[C@@H]3C[C@@H]4C(=O)N[C@@H](CCCCNC(C)=O)C(=O)N4[C@@H]3c3cccc(OCCO)c3)cc2)[C@]12C(=O)Nc1ccccc12 | hi
* COC(=O)C[C@H]1O[C@@]2(C[C@@H]1[Si](C)(C)C)C(=O)N(C)c1ccccc12 | hi
* COC(=O)[C@@]1(Cc2ccc(F)cc2)[C@H]2c3cc(C(=O)N(C)C)n(CCc4ccc(O)c(O)c4)c3C[C@H]2CN1C(=O)c1ccccc1 | lo

---

- test-description: ATP-based viability of Huh7 replicon cells – cell-based, CellTiter-Glo luminescence, basal, 48 h, cytotoxicity control for HCV replication inhibitor project, primary screen (AID 1143);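 further: Huh7 hepatoma cells carrying a hepatitis C replication reporter with no stimulus; test concentration not given here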
- run-parameters: higher = more signal, called active from +8 up or from −8 down
Activity calls are given as the source filed them.
property-label: z-score

* COCCOC(=O)N1C(=O)[C@@]2(c3cc(C#CCC(C(=O)OC)C(=O)OC)ccc31)[C@H](C(N)=O)[C@H]1C(=O)O[C@H](c3ccccc3)[C@H](c3ccccc3)N1[C@@H]2c1ccc(O)cc1 | -5.41 (inactive)
* COC(=O)[C@@]1(Cc2ccc(F)cc2)[C@H]2c3cc(C(=O)N4CCCC4)n(Cc4ccccn4)c3C[C@H]2CN1C(=O)c1ccccc1 | -1.56 (inactive)
* NC(=O)NCC#Cc1ccc2c(c1)[C@]1(C(=O)N2)[C@H](c2ccc(OCCO)cc2)N2[C@H](c3ccccc3)[C@H](c3ccccc3)OC(=O)[C@H]2[C@@H]1C(=O)O | -4.1 (inactive)
* CCOC(=O)c1cn(C[C@H](Cc2ccccc2)NC(=O)N[C@H](CO)CCc2oc(C(C)=O)c(C(=O)OC)c2C(=O)OC)nn1 | -2.84 (inactive)
* O=C1O[C@@H](c2ccccc2)[C@@H](c2ccccc2)N2[C@@H](c3ccc(OCCO)cc3)[C@]3(C(=O)Nc4ccc(C#CC5(O)CCCCCC5)cc43)[C@@H](C(=O)O)[C@H]12 | -0.72 (inactive)
* COCC(=C=CC[C@H](O)c1ccccc1OCCO)C[C@H](O)COCc1ccccc1 | -0.729 (inactive)
* Cc1ccc(S[C@]2(C(=O)NCc3ccccc3)CC(=O)N(Cc3ccccc3C(F)(F)F)[C@@H]2c2ccc(CO)cc2)cc1 | -2.35 (inactive)
* COc1cc(C(O)C2C=CC3C(=O)N(c4ccccc4)C(=O)C3N2Nc2ccccc2F)cc(OC)c1OC (configuration not stated) | -1.73 (inactive)
* C=C(COC)C(=O)CC[C@@H](OC(C)=O)c1ccccc1OCCO | -2.43 (inactive)
* COCCOC(=O)N1C(=O)[C@@]2(c3ccccc31)[C@H](c1ccc(O)cc1)N1[C@H](c3ccccc3)[C@H](c3ccccc3)OC(=O)[C@H]1[C@@H]2C(=O)N1CCCCCCC1 | -2.61 (inactive)
* NC(=O)N1C(=O)C2C(C1=O)C1C=C(CCCO)C2C(c2ccc(CN3CCCC3)cc2)N1Cc1sc2ccccc2c1Cl (configuration not stated) | -3.46 (inactive)
* C=CCC(OC(C)=O)[C@@H]1[C@@H](N(Cc2cc3ccccc3o2)C(=O)c2cccc3ccccc23)c2cc(OCCCO)ccc2N1C(=O)c1ccc2ccccc2n1 (some centres not stated) | -1.35 (inactive)
* COC(=O)[C@@]1(Cc2ccc(OC)cc2)[C@H]2c3cc(C(=O)N(C)C)[nH]c3C[C@H]2CN1C(=O)c1ccccc1 | 0.244 (inactive)
* CCCCCC1=C2CNC(Cc3ccccc3)(C(=O)OC)C=C2C(C)C1=O (configuration not stated) | -1.49 (inactive)
* C=C(C)[C@@H]1CC=C(C(O)C2C=CC3C(=O)N(C)C(=O)C3N2Nc2ccc([N+](=O)[O-])cc2[N+](=O)[O-])CC1 (some centres not stated) | -0.181 (inactive)
* COC(=O)[C@H](Cc1ccccc1)N1CC2=CCCC=C[C@@H]2[C@H]1[C@H](O)Cc1ccccc1 | -1.02 (inactive)
* CCCCC(=C=CC[C@H](O)c1ccc(CO)o1)CCO | 0.0865 (inactive)
* CN(C)CCCC[C@@H]1NC(=O)[C@@H]2C[C@H](C(=O)NCCCCCN)[C@H](c3cccc(OCCO)c3)N2C1=O | -0.716 (inactive)
* CN1C(=O)[C@@H]2[C@@H](CC(COc3ccccc3)=C3[C@@H](CCc4ccccc4)OB(O)C[C@@H]32)C1=O | -0.706 (inactive)
* CC=CC(O)C1C=CC2C(=O)NC(=O)C2N1Nc1ccc(Cl)cc1Cl (configuration not stated) | 0.323 (inactive)
* C=CCOC(=O)[C@H]1[C@@H]2C(=O)O[C@@H](c3ccccc3)[C@@H](c3ccccc3)N2[C@@H](c2ccc(OCCOC(=O)[C@H]3C[C@H]4C(=O)N[C@@H](CC(C)C)C(=O)N4[C@H]3c3ccc(O)cc3)cc2)[C@]12C(=O)Nc1ccccc12 | -0.351 (inactive)
* O=C1O[C@@H](c2ccccc2)[C@@H](c2ccccc2)N2[C@@H](c3ccc(OCCO)cc3)[C@]3(C(=O)Nc4ccc(C#CC5(O)CCCCCC5)cc43)[C@@H](C(=O)Nc3nc4ccccc4s3)[C@H]12 | -1.6 (inactive)
